test_summary: CCTE_Padilla_ZF_Score.Edema: CCTE's 144 Hour Post-fertilization zebrafish Assay Score for Edema Malformation, Padilla Lab (AID 2284406)
The source made the active and inactive calls. How the source made its calls: active means hit-call score of the fitted dose curve at least 0.9, where 1 is the maximum; inactive means score below 0.9.
Outcomes: active, inactive

1. OCC(F)(F)OC(F)(F)C(F)(F)OC(F)(F)C(F)(F)OC(F)(F)F
active
2. O=C(O)C(F)(F)OC(F)(F)C(F)(F)OC(F)(F)C(=O)O
inactive
3. OCC(F)(F)OC(F)(F)C(F)(F)OC(F)(F)C(F)(F)OC(F)(F)CO
inactive
4. OCC(F)(F)OC(F)(F)C(F)(F)OC(F)(F)CO
inactive
5. COC(=O)C(F)(F)C(F)(F)OC(F)(C(F)(F)F)C(F)(F)OC(F)=C(F)F (stereo unspecified)
inactive
6. O=C(O)C(F)(OC(F)(F)C(F)(F)C(F)(F)F)C(F)(F)F (stereo unspecified)
inactive

* * *

test_summary: APR_HepG2_StressKinase_72hr: Apredica 72-hour HepG2 Assay for Stress Kinase (AID 2282921)
measurement_setup: HepG2 stress kinase (phospho-c-Jun) imaging, actives raise or lower the signal
Activity calls are given as the source filed them. How the source made its calls: active means hit-call score of the fitted dose curve at least 0.9, where 1 is the maximum; inactive means score below 0.9.
Outcomes: active, inactive

1) CCCCCCCc1ccc(O)cc1
inactive
2) O=C(O)C1C(C(=O)O)C2(Cl)C(Cl)=C(Cl)C1(Cl)C2(Cl)Cl (stereo unspecified)
inactive
3) O=[N+]([O-])c1ccccc1
inactive
4) Nc1cc2c3c(c1)C(c1ccccc1)=N[C@@H](NC(=O)c1cccnc1)C(=O)N3CC2
inactive
5) CCNc1nc(Cl)nc(NC(C)(C)C)n1
inactive
6) O=[N+]([O-])c1ccc(Cl)c(Cl)c1
inactive
7) CC(C)(C)OOC(C)(C)C
inactive
8) CC(Cl)(Cl)C(=O)O
inactive
9) c1nc[nH]n1
inactive
10) CCOc1ccc(C(C)(C)COCc2cccc(Oc3ccccc3)c2)cc1
inactive
11) Nc1ccc2ccccc2c1
inactive
12) Cc1ccc(N)cc1N
inactive
13) COCCOCCO
inactive
14) c1ccc(OP(Oc2ccccc2)Oc2ccccc2)cc1
inactive
15) ClC(Cl)c1ccccc1
inactive
16) c1cc2c3c(cccc3c1)CC2
inactive
17) CCOC(=O)c1ccccc1C(=O)OCC
inactive
18) CC(Cc1ccc(OCC(=O)O)cc1)NCC(O)c1csc(C(F)(F)F)n1 (stereo unspecified)
inactive
19) CN(C)C(=O)Cl
inactive
20) ClC1=C(Cl)C2(Cl)C3C(Cl)C(Cl)CC3C1(Cl)C2(Cl)Cl (stereo unspecified)
active
21) O=P1(N(CCCl)CCCl)NCCCO1 (stereo unspecified)
inactive
22) CCCCN(CCCC)SN(C)C(=O)Oc1cccc2c1OC(C)(C)C2
inactive
23) [N-]=[N+]=[N-]
inactive
24) c1ccc2c(c1)Nc1ccccc1S2
inactive
25) Nc1ccc(Cl)cc1
inactive
26) Cc1cccc(N)c1
inactive
27) ClC(Cl)(Cl)c1ccccc1
inactive
28) CCN(CC)c1ccccc1
inactive
29) CCC1(c2ccccc2)C(=O)N=C(O)NC1=O (stereo unspecified)
inactive
30) OCC1CO1 (stereo unspecified)
inactive
31) CC(C)(C)c1ccc(O)cc1
inactive

* * *

test_summary: ATG_AP_2_CIS: Attagene CIS-FACTORIAL HepG2 Assay for human Activator Protein 2 (AP-2) (AID 2282932)
measurement_setup: HepG2 AP-2 cis-reporter, Attagene transcription factor profiling; actives raise or lower the signal
Active and inactive are the calls of the source. The calls were made as follows: active = hit-call score of the fitted dose curve at least 0.9, where 1 is the maximum; inactive = score below 0.9.
Outcomes: T for active, F for inactive

1) CCOC(=O)c1ccccc1C(=O)OCC
F
2) Oc1ccc(I)cc1
F
3) CNC(=O)Oc1ccc(N(C)C)c(C)c1
F
4) COP(=O)(CCC(=O)NCO)OC
F
5) CCCCCCCc1ccc(O)cc1
F
6) O=P(OCC(Br)CBr)(OCC(Br)CBr)OCC(Br)CBr (stereo unspecified)
T
7) CCCCc1ccccc1
F
8) CC(C)(C)c1ccccc1OP(=O)(Oc1ccccc1)Oc1ccccc1
F
9) N#Cc1ccc(O)cc1
F
10) COP(N)(=S)OC
F
11) CCOC(=O)c1ccccc1N
F
12) OCC(F)(F)OC(F)(F)C(F)(F)OC(F)(F)C(F)(F)OC(F)(F)CO
F
13) Cc1c([N+](=O)[O-])cc2c(c1[N+](=O)[O-])C(C)(C)CC2(C)C
F
14) CCCCC(CC)COC(=O)c1c(Br)c(Br)c(Br)c(Br)c1C(=O)OCC(CC)CCCC (stereo unspecified)
F
15) O=S(=O)(c1ccc(O)cc1)c1ccc(O)cc1
F
16) CCOP(=S)(OCC)SCS(=O)(=O)CC
F
17) CC(O)C(F)(F)C(F)(F)F (stereo unspecified)
F
18) Cc1cccc(N)c1
F
19) ClC1=C(Cl)C2(Cl)C3C(Cl)C(Cl)CC3C1(Cl)C2(Cl)Cl (stereo unspecified)
F
20) CCCCOCCOP(=O)(OCCOCCCC)OCCOCCCC
F
21) O=C(O)CF
F
22) O=C(CBr)OCc1ccccc1
F
23) CCOP(=S)(OCC)SCSCC
F
24) CCCCc1ccc(O)cc1
F
25) OCC1CO1 (stereo unspecified)
F
26) CCOP(=S)(OCC)SCn1nnc2ccccc2c1=O
F
27) CSC(C)(C)C=NO
F
28) CCC1(c2ccccc2)C(=O)N=C(O)NC1=O (stereo unspecified)
F
29) Nc1ccc2ccccc2c1
F
30) Clc1ccc(Oc2ccccc2)cc1
F
31) Cc1ccc(O)cc1C
F

* * *

Read-out: Vascular cell adhesion molecule 1 (VCAM1), VCAM1 (gene 7412)
test_summary: BSK_4H_VCAM1: BioMAP Diversity Plus: 4H Assay for Vascular cell adhesion molecule 1 (VCAM1) Biomarker Activity (AID 2283033)
measurement_setup: primary human endothelial cells (HUVEC); actives raise or lower the signal
The source made the active and inactive calls. Rule for the calls: active = hit-call score of the fitted dose curve at least 0.9, where 1 is the maximum; inactive = score below 0.9.
Outcomes: active, inactive

1) c1nc[nH]n1
inactive
2) O=[N+]([O-])c1ccc(Cl)c(Cl)c1
inactive
3) CCOP(=S)(Oc1ccc([N+](=O)[O-])cc1)c1ccccc1 (stereo not given)
active
4) [N-]=[N+]=[N-]
inactive
5) CCOC(=O)c1ccccc1C(=O)OCC
inactive
6) CCCCC(CC)COC(=O)c1c(Br)c(Br)c(Br)c(Br)c1C(=O)OCC(CC)CCCC (stereo not given)
inactive
7) CC(C)(C)c1ccc(O)cc1
inactive
8) CCCCN(CCCC)N=O
inactive
9) COC(=O)C(F)(F)C(F)(F)OC(F)(C(F)(F)F)C(F)(F)OC(F)=C(F)F (stereo not given)
inactive
10) ClC(Cl)=C(c1ccc(Cl)cc1)c1ccccc1Cl
active
11) OCC(F)(F)OC(F)(F)C(F)(F)OC(F)(F)CO
inactive
12) N#Cc1c(-c2ccc(Cl)cc2)[nH]c(C(F)(F)F)c1Br
active
13) Nc1ccc(Cl)cc1
inactive
14) Nc1cc2c3c(c1)C(c1ccccc1)=N[C@@H](NC(=O)c1cccnc1)C(=O)N3CC2
inactive
15) CCCN(CCC)c1c([N+](=O)[O-])cc(C(C)C)cc1[N+](=O)[O-]
active
16) CC(C)Nc1ccc(Nc2ccccc2)cc1
active
17) CC(Cl)CN(C)C (stereo not given)
inactive
18) O=S1(=O)OCC2C(CO1)C1(Cl)C(Cl)=C(Cl)C2(Cl)C1(Cl)Cl (stereo not given)
active
19) O=P1(N(CCCl)CCCl)NCCCO1 (stereo not given)
inactive
20) Cc1ccc2c(c1N)C(=O)c1ccccc1C2=O
inactive
21) CC(O)C(F)(F)C(F)(F)F (stereo not given)
inactive
22) CCOS(=O)(=O)OCC
inactive
23) O=C(O)C(F)(F)C(F)(F)C(=O)O
inactive
24) O=C(O)C1C(C(=O)O)C2(Cl)C(Cl)=C(Cl)C1(Cl)C2(Cl)Cl (stereo not given)
inactive
25) O=C(O)C(F)(OC(F)(F)C(F)(F)C(F)(F)F)C(F)(F)F (stereo not given)
inactive

* * *

test_summary: ATG_Ets_CIS: Attagene CIS-FACTORIAL HepG2 Assay for human Erythroblast Transformation Specific (ETS) (AID 2282941)
measurement_setup: HepG2 ETS cis-reporter transcription, actives raise or lower the signal
The source made the active and inactive calls. How the source made its calls: active means hit-call score of the fitted dose curve at least 0.9, where 1 is the maximum; inactive means score below 0.9.
property_label: AC50

1) CCCCC(CC)COC(=O)c1c(Br)c(Br)c(Br)c(Br)c1C(=O)OCC(CC)CCCC (centres undefined)
inactive
2) CCOC(=O)c1ccccc1C(=O)OCC
inactive
3) COCCOCCO
inactive
4) N#Cc1cc([N+](=O)[O-])ccc1N
inactive
5) O=C(CBr)OCc1ccccc1
inactive
6) CC(C)(C)c1ccccc1OP(=O)(Oc1ccccc1)Oc1ccccc1
inactive
7) FC(F)(F)c1ccc(Cl)cc1
inactive
8) O=C(O)C(F)(F)OC(F)(F)C(F)(F)OC(F)(F)F
inactive
9) O=P(OCC(Br)CBr)(OCC(Br)CBr)OCC(Br)CBr (centres undefined)
inactive
10) CCCCOCCOP(=O)(OCCOCCCC)OCCOCCCC
inactive
11) O=c1ssc(Cl)c1Cl
52.1 µM (active)
12) [N-]=[N+]=[N-]
inactive
13) CC(C)(C)N(NC(=O)c1ccc(Cl)cc1)C(=O)c1ccccc1
inactive
14) CCCCN(CCCC)SN(C)C(=O)Oc1cccc2c1OC(C)(C)C2
inactive

From: PubChem BioAssay (EPA / NIEHS)
